Sourced from the supplement of paper PMC11061612

- System: SW1417 (Colorectal Carcinoma);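 also: after 72 h of two-drug dosing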
- protocol: Bliss excess, mean over the matrix (fraction); higher = more synergy
Values of Bliss excess greater than or equal to -0.01 map to YES; values below map to NO.

Some entries whose results are on file:
molecule	experimental.system	assigned.category
Cc1c2c(nn1C)CSCc1cc(n(C)n1)CSc1cc(c3ccccc3c1)OCCCc1c(C(=O)O)n(C)c3c-2c(Cl)ccc13 [AZD5991] + CC1(C)CCC(CN2CCN(c3ccc(C(=O)NS(=O)(=O)c4ccc(NCC5CCOCC5)c([N+](=O)[O-])c4)c(Oc4cnc5[nH]ccc5c4)c3)CC2)=C(c2ccc(Cl)cc2)C1 [Venetoclax] (first compound max 1 µM, 7x7, partner max 1 µM)	SW1417 (Colorectal Carcinoma)	NO
Cc1c2c(nn1C)CSCc1cc(n(C)n1)CSc1cc(c3ccccc3c1)OCCCc1c(C(=O)O)n(C)c3c-2c(Cl)ccc13 [AZD5991] + CS(=O)(=O)CCNCc1ccc(-c2ccc3ncnc(Nc4ccc(OCc5cccc(F)c5)c(Cl)c4)c3c2)o1 [Lapatinib] (first compound max 1 µM, 7x7, partner max 10 µM)	SW1417 (Colorectal Carcinoma)	NO
CCc1c2c(nc3ccc(O)cc13)-c1cc3c(c(=O)n1C2)COC(=O)[C@]3(O)CC [SN-38] + O=C(c1cc(Cc2n[nH]c(=O)c3ccccc23)ccc1F)N1CCN(C(=O)C2CC2)CC1 [Olaparib] (first compound max 0.3 µM, 7x7, partner max 10 µM)	SW1417 (Colorectal Carcinoma)	YES
CN(CCO)CC[C@H](CSc1ccccc1)Nc1ccc(S(=O)(=O)NC(=O)c2ccc(N3CCC([C@@H](O)c4ccccc4-c4ccc(Cl)cc4)CC3)cc2)cc1S(=O)(=O)C(F)(F)F [AZD4320] + C[C@@H]1COCCN1C2=NC(=NC(=C2)C3(CC3)[S@](=N)(=O)C)C4=C5C=CNC5=NC=C4 [AZD6738] (first compound max 1 µM, 7x7, partner max 10 µM)	SW1417 (Colorectal Carcinoma)	NO
COc1nnc2ccc(N3CCC(c4ccc(OCCN5CCN(C)C(=O)[C@H]5C)cc4)CC3)nn12 [AZD5153] + Cn1cnc2c(F)c(Nc3ccc(Br)cc3Cl)c(C(=O)NOCCO)cc21 [Selumetinib] (first compound max 1 µM, 7x7, partner max 10 µM)	SW1417 (Colorectal Carcinoma)	YES

Incoming: Could you verify whether the entry Cc1cc2ncnn2cc1Nc1ncc2c(n1)n(C1CCOCC1)c(=O)n2C [AZD7648] + CN(C)CCCOc1ccc(-c2ccc3ncc4c(c3c2)n(C2CCOCC2)c(=O)n4C)cn1 [AZD0156] (first compound max 10 µM, 7x7, partner max 1 µM) shows Bliss excess of no less than -0.01?
Outgoing: NO

Incoming: Check if Bliss excess >= -0.01 (inclusive). Item: CN(C)CCCOc1ccc(-c2ccc3ncc4c(c3c2)n(C2CCOCC2)c(=O)n4C)cn1 [AZD0156] + C[C@@H]1COCCN1C2=NC(=NC(=C2)C3(CC3)[S@](=N)(=O)C)C4=C5C=CNC5=NC=C4 [AZD6738] (first compound max 1 µM, 7x7, partner max 10 µM)
Outgoing: YES

Incoming: hey, is Bliss excess for this one >= -0.01? Cc1cc2ncnn2cc1Nc1ncc2c(n1)n(C1CCOCC1)c(=O)n2C [AZD7648] + C[C@@H]1COCCN1C2=NC(=NC(=C2)C3(CC3)[S@](=N)(=O)C)C4=C5C=CNC5=NC=C4 [AZD6738] (first compound max 10 µM, 7x7, partner max 10 µM)
Outgoing: YES

Incoming: Determine whether measured Bliss excess meets or exceeds -0.01 for O=C(c1cc(Cc2n[nH]c(=O)c3ccccc23)ccc1F)N1CCN(C(=O)C2CC2)CC1 [Olaparib] + COc1nnc2ccc(N3CCC(c4ccc(OCCN5CCN(C)C(=O)[C@H]5C)cc4)CC3)nn12 [AZD5153] (first compound max 10 µM, 7x7, partner max 1 µM)
Outgoing: YES

Incoming: Hello, I need to know if COc1cccc(OCCCN)c1-c1cc(Nc2cnc(C#N)cn2)n[nH]1 [Prexasertib] + C[C@@H]1COCCN1C2=NC(=NC(=C2)C3(CC3)[S@](=N)(=O)C)C4=C5C=CNC5=NC=C4 [AZD6738] (first compound max 1 µM, 7x7, partner max 10 µM) has measured Bliss excess not below -0.01. Thanks!
Outgoing: YES
